- procedure-summary: NCI Yeast Anticancer Drug Screen. Data for the mec2-1 strain (AID 157)
- condition-info: S. cerevisiae mec2-1 strain, at 50.0 µM, hits give high values
About 79,000 compounds went through this panel and 15% of them were active in at least one assay; those are over-represented in the sample as a whole.
attribute-measured: growth inhibition (%)
One number for each entry, in %.

Look up growth inhibition for the entries below, preserving their order.
1. COC(=O)c1ccccc1NC(=O)C(=O)Cc1nc2c3c(ccc2[nH]c1=O)C(=O)c1ccccc1C3=O
2. BrC1(c2ccccc2)C[n+]2c(-c3ccccc3)cc(-c3ccccc3)cc2-c2ccccc21 (stereo unspecified)
3. O=C(c1ccccc1)C(Cl)c1ccccc1 (stereo unspecified)
4. COc1ccnc2c1C(=O)c1nc3ccccc3c3ccnc-2c13
5. Cc1ccc(C(CN(C)C)C(=O)c2ccccc2)cc1C (stereo unspecified)

1: 25.8; 2: 91.5; 3: 95.2; 4: 79.8; 5: 3.35
